Biological target: GPR139 (Homo sapiens, UniProt Q6DWJ6)
Sequence (Q6DWJ6 1-353): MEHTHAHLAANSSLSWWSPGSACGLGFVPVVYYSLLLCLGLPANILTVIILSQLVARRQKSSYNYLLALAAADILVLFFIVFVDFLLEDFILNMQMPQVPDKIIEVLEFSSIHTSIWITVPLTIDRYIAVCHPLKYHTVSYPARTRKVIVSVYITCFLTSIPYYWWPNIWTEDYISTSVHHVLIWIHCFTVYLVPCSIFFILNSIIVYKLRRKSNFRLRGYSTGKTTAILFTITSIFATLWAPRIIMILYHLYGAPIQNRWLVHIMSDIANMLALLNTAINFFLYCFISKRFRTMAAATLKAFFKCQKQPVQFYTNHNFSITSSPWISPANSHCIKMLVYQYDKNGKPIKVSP
Test: GPR139 Agonist titration / agonist counterscreen assay (calcium detection, HEK-GPR139 cells)
Type: cell-based
Set-up: expressed in transfected cells; host or cells: HEK Aequorin cells, Maxcyte transient transfection
Conditions: GPR139 Agonist Activity
measured-quantity: Lipophilic Efficiency (logD)

Worked examples follow.
compound: O=C(CN1C(=O)OC(O)(c2ccc(Cl)cc2Cl)C1=O)Nc1ccccc1Cl (centres unmarked)
tested-system: GPR139 (Homo sapiens, UniProt Q6DWJ6)
measured-number: 2.50
--
compound: Cc1ccccc1-c1nc(C[S+]([O-])CC(=O)NC(C)CCc2ccccc2)c(C)o1 (centres unmarked)
tested-system: GPR139 (Homo sapiens, UniProt Q6DWJ6)
measured-number: 2.69
--
compound: COc1cc(C(=O)NNC(=O)CCc2c[nH]c3ccccc23)ccc1OC(C)C
tested-system: GPR139 (Homo sapiens, UniProt Q6DWJ6)
measured-number: 3.27
--
compound: COc1ccc2c(c1)C[C@H](C(=O)Nc1ccc(-c3cn[nH]c3)cc1OCCN1CCCC1)NC2.O=C(O)C(F)(F)F.O=C(O)C(F)(F)F.O=C(O)C(F)(F)F
tested-system: GPR139 (Homo sapiens, UniProt Q6DWJ6)
measured-number: 5.00
--
compound: CSc1ccc(CCNC(=O)Cn2ncc3c(=O)oc4ccccc4c32)cc1
tested-system: GPR139 (Homo sapiens, UniProt Q6DWJ6)
measured-number: 3.64

(A) CN(Cc1ccc[nH]1)C(=O)CN1C(=O)NC2(CCc3ccccc3C2)C1=O (centres unmarked)
(B) O=C(O)COc1cc(Br)c(Br)c(Br)c1O
(C) CC(C)(C)c1cn2cccc(OCc3ccc(Cl)c(Cl)c3)c2n1
(D) N#Cc1ccc(OC(=O)COc2cccc3ccccc23)cc1
[Q] Rank entries according to their Lipophilic Efficiency (logD), from the largest number down. API: response body holds the labels in the requested order.
[A] B, A, D, C

(P) CC(C)Cn1c2c(c(=O)[nH]c1=O)C(NC(=O)CCC1CCCCC1)(C(F)(F)F)C(=O)N2 (centres unmarked)
(Q) Cc1nn(-c2ccccc2)nc1C(=O)NNC(=O)CSCc1cccc2ccccc12
[Q] Please indicate which item has the smaller measured Lipophilic Efficiency (logD): P versus Q Give the label under which the chosen entry appears.
[A] Q
